Listed here: items and their measured koff.
# target_desc: T1, recombinant human PD-L1 (amino acids 19-239 of NP_054862.1) with a C-terminal myc-myc-hexahistidine tag (human)
# T1 construct: also called hPD-L1-MMH; hPD-L1-MMH Monomer
# assay_notes: SPR (Biacore), mAb captured, 37C
Lab book: enter the figure in s⁻¹, no units written.

Solved entries:
binder	koff / s⁻¹
H2aM8314N (antibody, mouse IgG2, V domains shown, also called H2M8314N) VH: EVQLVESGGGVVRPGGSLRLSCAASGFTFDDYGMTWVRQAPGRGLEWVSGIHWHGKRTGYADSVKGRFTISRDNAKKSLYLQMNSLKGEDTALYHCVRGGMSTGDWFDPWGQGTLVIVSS VL: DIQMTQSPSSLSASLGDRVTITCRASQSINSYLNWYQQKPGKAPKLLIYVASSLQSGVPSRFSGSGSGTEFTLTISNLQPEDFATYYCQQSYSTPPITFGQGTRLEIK	0.00015
H2aM8323N (antibody, mouse IgG2, V domains shown, also called H2M8323N) VH: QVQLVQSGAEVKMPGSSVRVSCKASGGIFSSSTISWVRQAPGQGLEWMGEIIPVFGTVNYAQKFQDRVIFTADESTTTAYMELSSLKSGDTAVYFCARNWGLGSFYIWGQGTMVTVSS VL: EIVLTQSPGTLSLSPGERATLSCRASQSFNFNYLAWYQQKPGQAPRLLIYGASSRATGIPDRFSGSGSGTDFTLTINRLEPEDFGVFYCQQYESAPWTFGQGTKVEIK	0.000684

Continue with the binder presented below.
Query: Returns the measured koff for the input binder. Input: H1H9336P (antibody, human IgG1, V domains shown) VH: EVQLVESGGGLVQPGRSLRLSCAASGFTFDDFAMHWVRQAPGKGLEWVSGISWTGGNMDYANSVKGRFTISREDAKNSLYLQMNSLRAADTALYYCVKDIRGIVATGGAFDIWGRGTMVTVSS VL: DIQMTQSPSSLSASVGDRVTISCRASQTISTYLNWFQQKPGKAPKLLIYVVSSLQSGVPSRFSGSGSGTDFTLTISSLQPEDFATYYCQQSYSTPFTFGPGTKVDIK
Result: 0.000788
